System: SNB-75 CNS
measurementProtocol: NCI tumour cell line growth inhibition, 48 h
Reported log10(TGI) values for a set of molecules
Quick note: numbers are log10 of TGI, with µM as the unit.

>>> measuredresult("Cc1nc2ccccc2n1Cc1nnc2n1N=C(c1ccccc1)CS2")
1.77
>>> measuredresult("Nc1ncnc2nn(C3OC(CO)C(O)C3O)nc12 (stereo not given)")
1.73
>>> measuredresult("CN(C)Cc1cc(C(=O)/C=C/c2ccc(F)cc2)cc(CN(C)C)c1O")
1.94
>>> measuredresult("COc1ccc2[nH]c(O)c(/C=c3/ccc4c(c3)N=C(c3ccc(F)cc3)N=4)c2c1")
0.56
>>> measuredresult("CNCCCn1c2c(c3ccc(F)cc3c1=O)C(=O)c1cc(OC)cnc1-2")
0.52
>>> measuredresult("CC/C=C\\C[C@H](O)C/C=C1/C(=O)C=C[C@@H]1C/C=C\\CCCC(=O)NC")
1.36
>>> measuredresult("O=C(COc1ccc(-c2nc3cc(Cl)c(Cl)cc3[nH]2)cc1)N=Nc1c(O)[nH]c2ccccc12")
0.57
>>> measuredresult("O=C1CCCN1CCCN=c1cc2n(-c3ccc(Cl)cc3)c3ccccc3nc-2cc1Nc1ccc(Cl)cc1")
1.99

Prompt: Which log10(TGI) is listed for CCCCN1CCN(c2ccc3nc(-c4ccc5nc(-c6ccc(OCC)c(OCC)c6)[nH]c5c4)[nH]c3c2)CC1 ?
Response: 0.30

Prompt: Another: N=C(N)SCc1ccc([N+](=O)[O-])cc1[N+](=O)[O-]
Response: 1.70

Prompt: Another: O=C1C=C2CC[C@H]3[C@@H]4CC[C@H](Oc5c6ccccc6nc6ccccc56)[C@H]4CC[C@@H]3[C@H]2CC1
Response: 1.96

Prompt: Another: C[C@]12CC[C@@H]3c4ccc(O)cc4CC[C@H]3[C@@H]1CC[C@@H]2NS(=O)(=O)c1ccc2ccccc2c1
Response: 1.10

Prompt: Another: COC(=O)c1ccc(C)cc1CC1Cc2c(C)cccc2C1=O (stereo not given)
Response: 1.32

Prompt: Another: NC(=O)C1CCCN1C(=O)N(CCCl)N=O (stereo not given)
Response: 1.86

---

Tested on: RPMI-8226 leukemia
measurementProtocol: NCI tumour cell line growth inhibition, 48 h
Reported TGI values for a set of molecules

These solved cases illustrate the format of a correct answer.
>>> measuredresult("Cc1ncc(-c2ccnc(Nc3ccc(S(C)(=O)=O)cc3)n2)n1C(C)C")
"6.18 µM"
>>> measuredresult("CC(=O)OC1[C@@H](OC(C)=O)CN(OCc2ccccc2)C[C@H]1OC(C)=O (stereo partly drawn)")
"> 100 µM"
>>> measuredresult("C[C@]12CC[C@@H]3c4ccc(O)cc4CC[C@H]3[C@@H]1CC[C@@H]2NS(=O)(=O)c1ccc2ccccc2c1")
"9.94 µM"

Prompt: Which TGI is listed for C=CCN1C[C@@H](C)N([C@@H](c2ccc(C(=O)N(CC)CC)cc2)c2cccc(OC)c2)C[C@@H]1C ?
Response: > 100 µM

Prompt: Another: O=C(CCc1ccc(O)cc1)NCCCNC(=O)CCc1ccc(O)cc1
Response: > 100 µM

Prompt: Another: CC(C)(C)OC(=O)NCCCCCCCCCCn1c2c(c3ccccc3c1=O)C(=O)c1ccccc1-2
Response: > 100 µM

---

System: CCRF-CEM leukemia
measurementProtocol: NCI tumour cell line growth inhibition, 48 h; in the data active means GI50 below about 0.43 µM; inactive means the rest
Select the correct class. Options are 1 = active, -1 = inactive and nothing else.

>>> classification("C[C@]12CC[C@@H]3c4ccc(O)cc4CC[C@H]3[C@@H]1CC[C@@H]2NS(=O)(=O)c1ccc2ccccc2c1")
-1
>>> classification("Cc1cc(S(N)(=O)=O)c(S/C(=N\\Nc2ccc([N+](=O)[O-])cc2)c2ccc3ccccc3c2)cc1Cl")
-1
>>> classification("CCCCN1CCN(c2ccc3nc(-c4ccc5nc(-c6ccc(OCC)c(OCC)c6)[nH]c5c4)[nH]c3c2)CC1")
-1
>>> classification("CCOC(=O)c1nc2cc(C(F)(F)F)ccc2[n+]([O-])c1C")
1
>>> classification("Clc1ccc(N2CCC(N3CCCC3)CC2)cc1-c1nc2ccccc2[nH]1")
-1
>>> classification("CC(OC(=O)N(N(CCCl)S(C)(=O)=O)S(C)(=O)=O)c1ccc([N+](=O)[O-])cc1 (stereo not drawn)")
1
>>> classification("N=C(N)SCc1ccc([N+](=O)[O-])cc1[N+](=O)[O-]")
-1
>>> classification("COc1ccc(C#CC2=C(c3cc(OC)c(OC)c(OC)c3)C(=O)OC2)cc1")
-1

Prompt: GET /call?item= C[C@]12CCc3sc(-c4cccc(F)c4)nc3C1=CC[C@@H]1[C@@H]2CC[C@]2(C)C(=O)CC[C@@H]12 returns the recorded outcome of this test.
Response: -1

Prompt: Another: CN(C)c1ccc(/C=N/NC(=O)c2cccc3ccccc23)c(Cl)c1
Response: -1

Prompt: Another: COC(=O)[C@@H](OC)[C@@H]1Cc2cc3cc(OC4CC(OC5CC(O)C(O)C(C)O5)C(O)C(C)O4)c(C)c(O)c3c(O)c2C(=O)[C@H]1OC1CC(OC2CC(OC3CC(C)(O)C(O)C(C)O3)C(O)C(C)O2)C(O)C(C)O1 (stereo partly drawn)
Response: 1

Prompt: Another: O=C(Nc1cccc(-n2cc(-c3ccncc3)c(-c3ccc(O)c(Cl)c3)n2)c1)c1ccc(Cl)c(Cl)c1
Response: -1

Prompt: Another: COc1cc(NC(C)CCCN)c2ncccc2c1Sc1ccc(Cl)cc1 (stereo not drawn)
Response: -1
